Biological target: Histone deacetylase 1 (Homo sapiens, UniProt Q13547)
Sequence (Q13547 whole entry): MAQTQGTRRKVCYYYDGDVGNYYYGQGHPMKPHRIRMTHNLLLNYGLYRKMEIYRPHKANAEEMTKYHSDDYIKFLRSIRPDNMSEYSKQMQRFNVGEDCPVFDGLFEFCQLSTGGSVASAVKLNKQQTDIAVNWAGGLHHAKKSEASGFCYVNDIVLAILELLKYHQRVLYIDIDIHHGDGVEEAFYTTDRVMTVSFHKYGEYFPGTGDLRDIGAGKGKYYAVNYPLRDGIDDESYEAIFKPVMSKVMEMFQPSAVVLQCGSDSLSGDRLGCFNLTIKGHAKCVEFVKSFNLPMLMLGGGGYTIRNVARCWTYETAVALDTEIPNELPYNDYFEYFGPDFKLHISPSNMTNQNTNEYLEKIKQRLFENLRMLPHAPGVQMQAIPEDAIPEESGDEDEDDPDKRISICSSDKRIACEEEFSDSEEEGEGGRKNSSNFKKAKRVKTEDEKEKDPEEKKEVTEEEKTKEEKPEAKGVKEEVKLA
pIC50: −log10 of the molar value.
value-kind: pIC50

O=C(/C=C/c1cccc(S(=O)(=O)n2ccc3cccnc32)c1)NO :: 6.51

---

Target: Histone deacetylase 2 (Homo sapiens)
Sequence (Q92769 whole entry): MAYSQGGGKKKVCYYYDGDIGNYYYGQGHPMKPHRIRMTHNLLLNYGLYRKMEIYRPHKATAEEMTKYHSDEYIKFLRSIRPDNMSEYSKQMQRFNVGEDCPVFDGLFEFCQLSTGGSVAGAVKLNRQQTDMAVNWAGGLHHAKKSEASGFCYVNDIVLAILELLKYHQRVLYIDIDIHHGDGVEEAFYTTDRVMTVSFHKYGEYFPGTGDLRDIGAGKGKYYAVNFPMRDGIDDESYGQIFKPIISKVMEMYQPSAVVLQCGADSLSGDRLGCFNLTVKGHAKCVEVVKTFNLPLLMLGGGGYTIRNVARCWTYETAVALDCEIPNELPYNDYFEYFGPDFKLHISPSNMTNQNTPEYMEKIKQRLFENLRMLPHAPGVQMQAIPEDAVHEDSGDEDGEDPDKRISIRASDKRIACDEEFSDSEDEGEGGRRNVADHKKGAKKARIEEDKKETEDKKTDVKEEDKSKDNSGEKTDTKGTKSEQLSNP
pIC50: −log10 of the molar value.
value-kind: pIC50

O=C(/C=C/c1cccc(S(=O)(=O)n2ccc3cccnc32)c1)NO :: 5.94

---

Target: Histone deacetylase 8 (Homo sapiens, UniProt Q9BY41)
Sequence (Q9BY41 whole entry): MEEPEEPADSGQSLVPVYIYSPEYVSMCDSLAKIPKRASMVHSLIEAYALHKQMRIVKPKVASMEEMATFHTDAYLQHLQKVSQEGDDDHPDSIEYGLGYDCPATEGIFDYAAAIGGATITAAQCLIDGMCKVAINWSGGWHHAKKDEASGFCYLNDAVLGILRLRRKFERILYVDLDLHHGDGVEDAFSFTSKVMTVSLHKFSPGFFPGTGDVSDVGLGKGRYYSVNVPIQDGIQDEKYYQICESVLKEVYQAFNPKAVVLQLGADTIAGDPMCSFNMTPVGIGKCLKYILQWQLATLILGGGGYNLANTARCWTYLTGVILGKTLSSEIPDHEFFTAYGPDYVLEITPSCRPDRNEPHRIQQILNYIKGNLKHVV
value-kind: IC50 (nM)

O=C(/C=C/c1cccc(S(=O)(=O)n2ccc3cccnc32)c1)NO :: 1390

---

Test system: PC-3
Experiment: Cytotoxicity against human PC3 cells by MTT assay
Type: functional, cell-based
pIC50: −log10 of the molar value.
A collection of molecules and their measured pIC50
value-kind: pIC50

O=C(/C=C/c1cccc(S(=O)(=O)n2ccc3ccncc32)c1)NO :: 5.95
O=C(/C=C/c1cccc(S(=O)(=O)n2ccc3cccnc32)c1)NO :: 5.79
O=C(/C=C/c1ccc(S(=O)(=O)n2ccc3cccnc32)cc1)NO :: 5.91
O=C(/C=C/c1cccc(S(=O)(=O)n2ccc3ccccc32)c1)NO :: 5.40
O=C(/C=C/c1cccc(S(=O)(=O)n2ncc3ccccc32)c1)NO :: 5.49
O=C(/C=C/c1ccc(S(=O)(=O)n2ccc3ccncc32)cc1)NO :: 5.71
O=C(/C=C/c1ccc(S(=O)(=O)N2CCc3cccnc32)cc1)NO :: 5.44
O=C(/C=C/c1ccc(S(=O)(=O)n2ncc3ccccc32)cc1)NO :: 5.47
O=C(/C=C/c1cccc(S(=O)(=O)N2CCc3cccnc32)c1)NO :: 5.39

---

Assay: Tmax in ICR mouse at 10 mg/kg, po by LC-MS/MS analysis
Type: ADME, organism-based
Set-up: dose 10 mg/kg, route oral
Conditions: in vivo
value-kind: Tmax (min)

O=C(/C=C/c1cccc(S(=O)(=O)n2ccc3cccnc32)c1)NO :: 18

---

Assay: Oral bioavailability in ICR mouse at 10 mg/kg by LC-MS/MS analysis
Format: ADME, organism-based
Settings: in vivo
Each entry below lists one item and its recorded bioavailability value.
value-kind: bioavailability (%)

O=C(/C=C/c1cccc(S(=O)(=O)n2ccc3cccnc32)c1)NO :: 33
O=C(CCCCCCC(=O)Nc1ccccc1)NO :: 8.33

---

Experiment: Half life in ICR mouse at 2 mg/kg, iv by LC-MS/MS analysis
Assay type: ADME, organism-based
Set-up: dose 2 mg/kg, route intravenous
Conditions: in vivo
value-kind: half-life (h)

O=C(/C=C/c1cccc(S(=O)(=O)n2ccc3cccnc32)c1)NO :: 2.5

---

Test: Cytotoxicity against human H460 cells by MTT assay
Assay type: functional, cell-based
Details: NCI-H460
pIC50: −log10 of the molar value.
value-kind: pIC50

O=C(/C=C/c1cccc(S(=O)(=O)n2ncc3ccccc32)c1)NO :: 5.92
O=C(/C=C/c1ccc(S(=O)(=O)n2ccc3ccncc32)cc1)NO :: 5.78
O=C(/C=C/c1ccc(S(=O)(=O)n2ccc3cccnc32)cc1)NO :: 6.04
O=C(CCCCCCC(=O)Nc1ccccc1)NO :: 6.09
O=C(/C=C/c1cccc(S(=O)(=O)n2ccc3cccnc32)c1)NO :: 6.24
O=C(/C=C/c1cccc(S(=O)(=O)N2CCc3cccnc32)c1)NO :: 5.74
O=C(/C=C/c1ccc(S(=O)(=O)N2CCc3cccnc32)cc1)NO :: 5.70
O=C(/C=C/c1ccc(S(=O)(=O)n2ncc3ccccc32)cc1)NO :: 5.55
O=C(/C=C/c1cccc(S(=O)(=O)n2ccc3ccccc32)c1)NO :: 5.52
O=C(/C=C/c1cccc(S(=O)(=O)n2ccc3ccncc32)c1)NO :: 6.25

---

Test: Volume of distribution at steady state in ICR mouse at 2 mg/kg, iv by LC-MS/MS analysis
Format: ADME, organism-based
Design: dose 2 mg/kg, route intravenous
Conditions: in vivo, read-out: Vdss
value-kind: Vd (L/kg)

O=C(/C=C/c1cccc(S(=O)(=O)n2ccc3cccnc32)c1)NO :: 9.8

---

Test: Half life in ICR mouse at 10 mg/kg, po by LC-MS/MS analysis
Assay type: ADME, organism-based
Design: dose 10 mg/kg, route oral
Details: in vivo
value-kind: half-life (min)

O=C(/C=C/c1cccc(S(=O)(=O)n2ccc3cccnc32)c1)NO :: 144

---

System: MCF7
Assay: Cytotoxicity against human MCF7 cells by MTT assay
Format: functional, cell-based
value-kind: IC50 (µM)

O=C(/C=C/c1cccc(S(=O)(=O)n2ccc3cccnc32)c1)NO :: 1.33

---

Biological target: Histone deacetylase
Assay: Inhibition of HDAC in human HeLa cell nuclear extract using Boc-Lys(Ac)-AMC as substrate after 30 mins by fluorimetric analysis
Type: protein assay
Recorded IC50 values for a group of compounds are listed next.
value-kind: IC50

O=C(/C=C/c1cccc(S(=O)(=O)n2ccc3ccccc32)c1)NO :: 510 nM
O=C(/C=C/c1cccc(S(=O)(=O)N2CCc3cccnc32)c1)NO :: 600 nM
O=C(/C=C/c1cccc(S(=O)(=O)n2ccc3ccncc32)c1)NO :: 480 nM
O=C(/C=C/c1ccc(S(=O)(=O)n2ncc3ccccc32)cc1)NO :: 500 nM
O=C(/C=C/c1ccc(S(=O)(=O)n2ccc3cccnc32)cc1)NO :: 240 nM
O=C(/C=C/c1cccc(S(=O)(=O)n2ccc3cccnc32)c1)NO :: 100 nM
O=C(/C=C/c1ccc(S(=O)(=O)N2CCc3cccnc32)cc1)NO :: 850 nM
O=C(/C=C/c1ccc(S(=O)(=O)n2ccc3ccncc32)cc1)NO :: 560 nM
O=C(/C=C/c1cccc(S(=O)(=O)n2ncc3ccccc32)c1)NO :: 230 nM
